- study-system: Tyrosine-protein kinase Mer (Homo sapiens, UniProt Q12866); further: in the data inactive means no Kd found up to 30 µM
- Sequence (Q12866 whole entry): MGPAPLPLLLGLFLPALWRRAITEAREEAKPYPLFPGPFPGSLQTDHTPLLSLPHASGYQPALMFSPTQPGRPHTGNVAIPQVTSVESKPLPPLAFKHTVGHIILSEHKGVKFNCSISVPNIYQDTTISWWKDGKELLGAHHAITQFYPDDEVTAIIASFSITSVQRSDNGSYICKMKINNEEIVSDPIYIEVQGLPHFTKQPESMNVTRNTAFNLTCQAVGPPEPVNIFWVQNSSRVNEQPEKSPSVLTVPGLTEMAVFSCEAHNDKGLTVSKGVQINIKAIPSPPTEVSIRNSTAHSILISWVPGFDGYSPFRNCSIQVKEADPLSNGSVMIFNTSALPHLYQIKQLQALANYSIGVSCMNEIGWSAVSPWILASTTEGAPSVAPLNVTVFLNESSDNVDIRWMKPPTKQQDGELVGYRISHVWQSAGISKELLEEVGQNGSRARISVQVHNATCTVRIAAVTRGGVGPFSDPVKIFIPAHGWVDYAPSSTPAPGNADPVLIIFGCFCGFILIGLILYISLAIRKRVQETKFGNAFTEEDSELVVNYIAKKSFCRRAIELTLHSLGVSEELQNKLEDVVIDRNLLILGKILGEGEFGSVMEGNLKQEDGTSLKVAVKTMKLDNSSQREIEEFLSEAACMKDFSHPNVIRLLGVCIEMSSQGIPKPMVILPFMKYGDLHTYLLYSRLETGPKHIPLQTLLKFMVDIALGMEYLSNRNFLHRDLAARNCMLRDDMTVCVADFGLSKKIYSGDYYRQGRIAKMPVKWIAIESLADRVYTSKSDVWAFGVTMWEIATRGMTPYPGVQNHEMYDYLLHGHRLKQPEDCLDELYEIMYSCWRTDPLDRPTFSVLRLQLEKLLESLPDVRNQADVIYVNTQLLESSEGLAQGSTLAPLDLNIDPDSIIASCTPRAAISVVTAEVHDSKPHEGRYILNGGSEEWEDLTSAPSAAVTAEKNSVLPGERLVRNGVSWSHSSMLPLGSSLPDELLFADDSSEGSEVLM
Activity calls are given as the source filed them.
readout-name: Kd

>>> value("Cc1ccc(-n2nc(C(C)(C)C)cc2NC(=O)NCc2cc(F)ccc2Oc2ccc3c(cnn3CCO)c2)cc1")
"2.81 µM"
>>> value("COc1cc(CCc2cc(NC(=O)c3ccc(N4C[C@@H](C)N[C@@H](C)C4)cc3)n[nH]2)cc(OC)c1")
"> 30 µM (inactive)"
>>> value("COC(=O)[C@@]1(O)C[C@H]2O[C@]1(C)n1c3ccccc3c3c4c(c5c6ccccc6n2c5c31)C(=O)NC4 [K-252A]")
"0.041 µM"
>>> value("Cc1c(F)cc(C(=O)NC2CC2)cc1-c1ccc(C(=O)NCC(C)(C)C)cn1")
"> 30 µM (inactive)"
>>> value("CNC(=O)CN1CCC(Oc2cc3c(Nc4cccc(Cl)c4F)ncnc3cc2OC)CC1")
"> 30 µM (inactive)"
>>> value("Cc1ccc(S(=O)(=O)Nc2nc3ccccc3nc2Nc2ccc3nsnc3c2)cc1")
"> 30 µM (inactive)"
>>> value("O=C(Nc1ccc(-c2ccnc(Nc3ccc(N4CCOCC4)cc3)n2)cc1)C1CCCN1 (stereo not drawn)")
"> 30 µM (inactive)"
>>> value("CC(C)Nc1cc(-c2c[nH]c(C(=O)N[C@H](CO)c3cccc(Cl)c3)c2)c(Cl)cn1")
"> 30 µM (inactive)"

###

- study-system: Tyrosine-protein kinase Fer (Homo sapiens, UniProt P16591); further: in the data inactive means no Kd found up to 30 µM
- Sequence (P16591 whole entry): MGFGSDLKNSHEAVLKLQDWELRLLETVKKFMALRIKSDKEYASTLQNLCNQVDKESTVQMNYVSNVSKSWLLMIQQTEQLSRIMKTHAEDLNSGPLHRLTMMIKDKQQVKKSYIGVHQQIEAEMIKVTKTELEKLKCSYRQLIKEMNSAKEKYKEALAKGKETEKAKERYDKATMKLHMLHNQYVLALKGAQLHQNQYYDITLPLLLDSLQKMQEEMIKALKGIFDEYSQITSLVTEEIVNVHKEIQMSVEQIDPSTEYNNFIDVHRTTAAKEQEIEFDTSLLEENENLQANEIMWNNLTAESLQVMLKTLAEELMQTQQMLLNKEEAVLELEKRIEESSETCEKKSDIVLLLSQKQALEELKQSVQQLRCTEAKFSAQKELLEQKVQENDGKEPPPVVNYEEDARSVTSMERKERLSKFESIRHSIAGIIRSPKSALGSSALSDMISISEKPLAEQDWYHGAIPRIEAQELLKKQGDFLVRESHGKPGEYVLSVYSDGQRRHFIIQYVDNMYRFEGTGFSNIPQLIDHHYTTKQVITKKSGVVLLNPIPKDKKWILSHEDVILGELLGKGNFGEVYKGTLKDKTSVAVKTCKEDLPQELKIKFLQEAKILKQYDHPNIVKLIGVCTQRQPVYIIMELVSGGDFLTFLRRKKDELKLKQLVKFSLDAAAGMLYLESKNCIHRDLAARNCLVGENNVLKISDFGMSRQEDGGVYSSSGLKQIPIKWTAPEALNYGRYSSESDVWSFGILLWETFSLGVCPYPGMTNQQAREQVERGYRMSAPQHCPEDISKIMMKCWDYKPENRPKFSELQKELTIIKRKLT
The source made the active and inactive calls.
Possible outcomes: active, inactive

>>> label("CC[C@@H]1C(=O)N(C)c2cnc(Nc3ccc(C(=O)N[C@H]4CC[C@H](N5CCN(CC6CC6)CC5)CC4)cc3OC)nc2N1C(C)C [VOLASERTIB]")
"inactive"
>>> label("CO[C@H]1C[C@@H]2CC[C@@H](C)[C@@](O)(O2)C(=O)C(=O)N2CCCC[C@H]2C(=O)O[C@H]([C@H](C)C[C@@H]2CC[C@@H](OCCO)[C@H](OC)C2)CC(=O)[C@H](C)/C=C(\\C)[C@@H](O)[C@@H](OC)C(=O)[C@H](C)C[C@H](C)/C=C/C=C/C=C/1C [EVEROLIMUS]")
"inactive"
>>> label("N[C@@H]1CCCN(c2c(/C=C3\\SC(=O)NC3=O)cccc2-c2ccccc2)C1")
"inactive"
>>> label("CCS(=O)(=O)N1CC(CC#N)(n2cc(-c3ncnc4[nH]ccc34)cn2)C1 [BARICITINIB]")
"inactive"
>>> label("COC(=O)[C@@]1(O)C[C@H]2O[C@]1(C)n1c3ccccc3c3c4c(c5c6ccccc6n2c5c31)C(=O)NC4 [K-252A]")
"active"
>>> label("COc1cc2nccc(Oc3ccc(NC(=O)Nc4cc(C)on4)c(Cl)c3)c2cc1OC [TIVOZANIB]")
"inactive"

###

List of Kd values.
- study-system: Calcium/calmodulin-dependent protein kinase type IV (Homo sapiens); further: in the data inactive means no Kd found up to 30 µM
- Sequence (Q16566 whole entry): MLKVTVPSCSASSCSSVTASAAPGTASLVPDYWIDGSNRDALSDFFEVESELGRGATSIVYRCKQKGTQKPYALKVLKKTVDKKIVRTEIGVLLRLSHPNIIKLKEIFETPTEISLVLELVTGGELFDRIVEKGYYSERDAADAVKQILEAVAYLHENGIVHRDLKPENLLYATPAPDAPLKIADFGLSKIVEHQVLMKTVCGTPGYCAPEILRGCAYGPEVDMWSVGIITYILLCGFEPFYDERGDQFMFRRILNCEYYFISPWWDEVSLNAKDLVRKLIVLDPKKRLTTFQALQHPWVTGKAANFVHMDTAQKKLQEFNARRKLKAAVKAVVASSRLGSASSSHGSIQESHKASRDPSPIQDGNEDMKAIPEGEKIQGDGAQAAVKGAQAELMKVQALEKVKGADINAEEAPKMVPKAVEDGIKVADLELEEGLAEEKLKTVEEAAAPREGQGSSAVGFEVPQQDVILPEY
Activity calls are given as the source filed them.
readout-name: Kd

>>> value("Cc1cc2c(F)c(Oc3ncnn4cc(OC[C@@H](C)OC(=O)[C@H](C)N)c(C)c34)ccc2[nH]1 [BRIVANIB ALANINATE]")
"> 30 µM (inactive)"
>>> value("COc1cc(CCc2cc(NC(=O)c3ccc(N4C[C@@H](C)N[C@@H](C)C4)cc3)n[nH]2)cc(OC)c1")
"> 30 µM (inactive)"
>>> value("CN(C)C(=O)c1cc2cnc(Nc3ccc(N4CCNCC4)cn3)nc2n1C1CCCC1")
"> 30 µM (inactive)"

###

- study-system: Ferrochelatase, mitochondrial (Homo sapiens); further: in the data inactive means no Kd found up to 30 µM
- Sequence (P22830 whole entry): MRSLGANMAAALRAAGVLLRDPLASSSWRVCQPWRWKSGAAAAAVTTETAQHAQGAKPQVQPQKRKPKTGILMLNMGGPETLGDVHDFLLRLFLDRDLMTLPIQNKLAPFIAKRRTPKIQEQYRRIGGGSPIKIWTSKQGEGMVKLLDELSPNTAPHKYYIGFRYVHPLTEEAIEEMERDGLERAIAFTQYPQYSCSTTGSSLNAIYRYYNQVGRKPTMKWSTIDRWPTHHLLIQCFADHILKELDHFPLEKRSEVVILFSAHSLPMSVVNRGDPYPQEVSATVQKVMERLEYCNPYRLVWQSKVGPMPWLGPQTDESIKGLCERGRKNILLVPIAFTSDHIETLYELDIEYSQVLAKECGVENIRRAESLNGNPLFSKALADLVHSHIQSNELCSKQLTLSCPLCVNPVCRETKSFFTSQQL
Active and inactive are the calls of the source.
Possible outcomes: active, inactive

>>> label("CCn1c(=O)c(-c2cc[nH]n2)cc2c(C)nc(N)nc21 [VOXTALISIB]")
"inactive"
>>> label("CCN1CCN(Cc2ccc(-c3cc4c(N[C@H](C)c5ccccc5)ncnc4[nH]3)cc2)CC1 [AEE-788]")
"inactive"
>>> label("C1=C/COCc2cc(ccc2OCCN2CCCC2)Nc2nccc(n2)-c2cccc(c2)COC/1 [PACRITINIB]")
"active"
>>> label("CNC(=O)c1cc(Oc2ccc(NC(=O)Nc3ccc(Cl)c(C(F)(F)F)c3)c(F)c2)ccn1 [REGORAFENIB]")
"inactive"

###

- study-system: Serine/threonine-protein kinase ULK3 (Homo sapiens); further: in the data inactive means no Kd found up to 30 µM
- Sequence (Q6PHR2 whole entry): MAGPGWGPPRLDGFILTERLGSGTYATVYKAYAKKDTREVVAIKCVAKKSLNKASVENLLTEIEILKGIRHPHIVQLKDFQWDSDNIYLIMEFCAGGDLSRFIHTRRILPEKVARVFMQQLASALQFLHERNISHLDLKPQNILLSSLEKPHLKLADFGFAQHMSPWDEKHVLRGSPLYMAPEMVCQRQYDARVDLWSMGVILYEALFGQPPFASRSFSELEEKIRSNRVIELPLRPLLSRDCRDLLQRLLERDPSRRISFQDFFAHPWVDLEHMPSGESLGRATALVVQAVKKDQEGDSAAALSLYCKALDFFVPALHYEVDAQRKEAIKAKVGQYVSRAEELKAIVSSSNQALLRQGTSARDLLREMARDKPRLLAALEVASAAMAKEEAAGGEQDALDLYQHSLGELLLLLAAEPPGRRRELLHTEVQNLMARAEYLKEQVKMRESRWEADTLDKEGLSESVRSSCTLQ
Activity calls are given as the source filed them.
Possible outcomes: active, inactive

>>> label("COC(=O)[C@@]1(O)C[C@H]2O[C@]1(C)n1c3ccccc3c3c4c(c5c6ccccc6n2c5c31)C(=O)NC4 [K-252A]")
"active"
>>> label("CCS(=O)(=O)N1CC(CC#N)(n2cc(-c3ncnc4[nH]ccc34)cn2)C1")
"inactive"
>>> label("Cn1ncc(Cl)c1-c1cc(C(=O)N[C@H](CN)Cc2cccc(F)c2)sc1Cl")
"inactive"

###

- study-system: Hepatocyte growth factor receptor (Homo sapiens, UniProt P08581); further: in the data inactive means no Kd found up to 30 µM
- Sequence (P08581 whole entry): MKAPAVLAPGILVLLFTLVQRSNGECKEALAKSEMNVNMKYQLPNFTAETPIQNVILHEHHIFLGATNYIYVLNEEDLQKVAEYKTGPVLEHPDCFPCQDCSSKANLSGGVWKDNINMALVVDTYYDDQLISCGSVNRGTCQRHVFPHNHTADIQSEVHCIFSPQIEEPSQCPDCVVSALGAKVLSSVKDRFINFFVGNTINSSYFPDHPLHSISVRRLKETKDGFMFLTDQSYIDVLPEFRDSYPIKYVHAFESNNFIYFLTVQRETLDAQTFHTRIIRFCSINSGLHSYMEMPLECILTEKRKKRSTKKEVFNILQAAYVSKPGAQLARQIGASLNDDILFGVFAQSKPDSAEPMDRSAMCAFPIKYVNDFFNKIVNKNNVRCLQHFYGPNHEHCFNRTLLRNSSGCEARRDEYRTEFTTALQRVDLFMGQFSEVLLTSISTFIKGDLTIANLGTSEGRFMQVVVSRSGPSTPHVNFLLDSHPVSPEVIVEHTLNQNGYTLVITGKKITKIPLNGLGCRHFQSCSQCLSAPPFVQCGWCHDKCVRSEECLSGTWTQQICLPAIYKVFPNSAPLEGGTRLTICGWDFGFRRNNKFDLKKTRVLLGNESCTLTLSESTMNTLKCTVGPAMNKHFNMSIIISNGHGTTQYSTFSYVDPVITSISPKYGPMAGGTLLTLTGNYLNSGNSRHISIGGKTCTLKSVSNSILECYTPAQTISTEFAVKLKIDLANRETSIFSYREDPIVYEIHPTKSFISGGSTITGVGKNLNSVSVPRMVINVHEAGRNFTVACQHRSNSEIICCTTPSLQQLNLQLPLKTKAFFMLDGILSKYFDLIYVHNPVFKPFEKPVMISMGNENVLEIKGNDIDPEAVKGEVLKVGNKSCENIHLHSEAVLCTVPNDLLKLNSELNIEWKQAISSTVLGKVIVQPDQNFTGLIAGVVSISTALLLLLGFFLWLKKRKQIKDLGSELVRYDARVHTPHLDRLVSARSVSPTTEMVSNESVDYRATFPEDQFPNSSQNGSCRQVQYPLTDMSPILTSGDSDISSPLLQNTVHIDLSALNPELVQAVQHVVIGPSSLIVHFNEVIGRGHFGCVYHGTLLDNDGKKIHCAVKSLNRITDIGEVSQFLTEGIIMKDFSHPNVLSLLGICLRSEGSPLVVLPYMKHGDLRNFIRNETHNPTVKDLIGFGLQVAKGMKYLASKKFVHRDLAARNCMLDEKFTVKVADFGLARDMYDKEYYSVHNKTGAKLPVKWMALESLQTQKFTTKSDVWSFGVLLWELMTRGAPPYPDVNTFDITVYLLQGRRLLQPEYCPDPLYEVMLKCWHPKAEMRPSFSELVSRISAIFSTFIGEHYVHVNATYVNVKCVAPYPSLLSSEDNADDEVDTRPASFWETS
Calls of active or inactive are those of the source.
Possible outcomes: active, inactive

>>> label("COc1cc(CCc2cc(NC(=O)c3ccc(N4C[C@@H](C)N[C@@H](C)C4)cc3)n[nH]2)cc(OC)c1 [AZD-4547]")
"inactive"
>>> label("COc1cc(OC)c(/C=C/S(=O)(=O)Cc2ccc(OC)c(NCC(=O)O)c2)c(OC)c1 [RIGOSERTIB]")
"active"
>>> label("CCS(=O)(=O)N1CC(CC#N)(n2cc(-c3ncnc4[nH]ccc34)cn2)C1 [BARICITINIB]")
"inactive"
>>> label("O=C(Nc1ccc(-c2ccnc(Nc3ccc(N4CCOCC4)cc3)n2)cc1)C1CCCN1 (stereo not drawn) [XL-019]")
"inactive"
>>> label("Cc1ccc(-n2nc(C(C)(C)C)cc2NC(=O)NCc2cc(F)ccc2Oc2ccc3c(cnn3CCO)c2)cc1 [PEXMETINIB]")
"inactive"
>>> label("C[C@@H](Nc1cc(F)cc(F)c1)c1cc(C(=O)N(C)C)cc2c(=O)cc(N3CCOCC3)oc12 [AZD-8186]")
"inactive"
>>> label("CCN1CCN(Cc2ccc(-c3cc4c(N[C@H](C)c5ccccc5)ncnc4[nH]3)cc2)CC1 [AEE-788]")
"inactive"
>>> label("CNC(=O)CN1CCC(Oc2cc3c(Nc4cccc(Cl)c4F)ncnc3cc2OC)CC1 [SAPITINIB]")
"inactive"

###

Calls of active or inactive are those of the source.
As a worked illustration, we turn to Kd data collected for Mitogen-activated protein kinase 11 (Homo sapiens).
readout-name: Kd

>>> value("CN1CCC(CNc2ccc3ncc(-c4cccc(OC(F)(F)F)c4)n3n2)CC1 [SGI-1776]")
"> 30 µM (inactive)"
>>> value("Cc1cc2c(F)c(Oc3ncnn4cc(OC[C@@H](C)OC(=O)[C@H](C)N)c(C)c34)ccc2[nH]1 [BRIVANIB ALANINATE]")
"> 30 µM (inactive)"
>>> value("C=CC(=O)N1CCC(Oc2cc3c(Nc4ccc(Cl)c(Cl)c4F)ncnc3cc2OC)CC1 [POZIOTINIB]")
"> 30 µM (inactive)"
>>> value("COc1cc2nccc(Oc3ccc(NC(=O)NC4CC4)c(Cl)c3)c2cc1C(N)=O [LENVATINIB]")
"> 30 µM (inactive)"
>>> value("CN1CC[C@@H](c2c(O)cc(O)c3c(=O)cc(-c4ccccc4Cl)oc23)[C@@H]1CO")
"> 30 µM (inactive)"
>>> value("CCS(=O)(=O)N1CC(CC#N)(n2cc(-c3ncnc4[nH]ccc34)cn2)C1 [BARICITINIB]")
"> 30 µM (inactive)"
>>> value("Cn1ncc(Cl)c1-c1cc(C(=O)N[C@H](CN)Cc2cccc(F)c2)sc1Cl [AFURESERTIB]")
"> 30 µM (inactive)"
>>> value("CCc1cnn2c(NCc3ccc[n+]([O-])c3)cc(N3CCCC[C@H]3CCO)nc12 [DINACICLIB]")
"> 30 µM (inactive)"
